# Assay Details: The drug is tested on the gut metagenome community of MV14 with ENA study accession number: PRJEB31790 and ENA sample accession number: SAMEA5537495 for biotransformation. The drug concentrations were measured over 9 timepoints collected between 0 and 24 hours of incubation by liquid-chromatography-coupled mass spectrometry (LC–MS)
# Assay type: ADME
# Set-up: dose 2 uM, timepoint 0, 1, 2, 4, 6, 8, 12, 18, 24 hours
# Stated Conditions: 2 µM

{"Compound": "C#C[C@]1(OC(C)=O)CC[C@H]2[C@@H]3CCC4=CC(=O)CC[C@@H]4[C@H]3CC[C@@]21C [NORETHINDRONE ACETATE]", "Bacterial Biotransformation": "Compound metabolized"}
{"Compound": "C[C@@H]1C[C@H]2[C@@H]3CCC4=CC(=O)C=C[C@]4(C)[C@@]3(F)[C@@H](O)C[C@]2(C)[C@@]1(O)C(=O)CO", "Bacterial Biotransformation": "Compound NOT metabolized"}
{"Compound": "CC(=O)OCC(CCn1cnc2cnc(N)nc21)COC(C)=O", "Bacterial Biotransformation": "Compound metabolized"}
{"Compound": "COc1ccc([C@@H]2Sc3ccccc3N(CCN(C)C)C(=O)[C@@H]2OC(C)=O)cc1", "Bacterial Biotransformation": "Compound NOT metabolized"}

----------
# Assay Details: The drug is tested on Blautia hansenii strain: DSM20583 for biotransformation. The drug concentrations were measured before and after a 12-h incubation by liquid-chromatography-coupled mass spectrometry (LC–MS)
# Stated Conditions: 2 µM
Measurement Kind: Bacterial Biotransformation

Use the examples below as a reference point.
{"Compound": "C#C[C@]1(OC(C)=O)CC[C@H]2[C@@H]3CCC4=C[C@@H](OC(C)=O)CC[C@@H]4[C@H]3CC[C@@]21C [ETHYNODIOL DIACETATE]", "Bacterial Biotransformation": "Compound NOT metabolized"}
{"Compound": "COC(=O)[C@H](c1ccccc1Cl)N1CCc2sccc2C1.O=S(=O)(O)O [CLOPIDOGREL BISULFATE]", "Bacterial Biotransformation": "Compound metabolized"}
{"Compound": "CC(=O)OCC(=O)[C@@]1(OC(C)=O)[C@@H](C)C[C@H]2[C@@H]3C[C@H](F)C4=CC(=O)C=C[C@]4(C)[C@@]3(F)[C@@H](O)C[C@@]21C [DIFLORASONE DIACETATE]", "Bacterial Biotransformation": "Compound metabolized"}
{"Compound": "CCS(=O)(=O)CCn1c([N+](=O)[O-])cnc1C", "Bacterial Biotransformation": "Compound metabolized"}
{"Compound": "CC1=C(CC(=O)O)c2cc(F)ccc2/C1=C\\c1ccc([S+](C)[O-])cc1 (configuration not stated)", "Bacterial Biotransformation": "Compound NOT metabolized"}

Give the measured Bacterial Biotransformation for CN(C)CCC=C1c2ccccc2C=Cc2ccccc21
Compound metabolized

Quick one: give measured Bacterial Biotransformation for CCN(CC)CCOC(=O)C(Cc1cccc2ccccc12)CC1CCCO1.O=C(O)C(=O)O (configuration not stated) [NAFRONYL OXALATE]
Compound metabolized

----------
# Assay Details: The drug is tested on Bifidobacterium ruminantium strain: fecal isolate for biotransformation. The drug concentrations were measured before and after a 12-h incubation by liquid-chromatography-coupled mass spectrometry (LC–MS)
# Stated Conditions: 2 µM
Measurement Kind: Bacterial Biotransformation

Please review the entries below; each comes with its answer.
{"Compound": "CC(C)c1nc(CN(C)C(=O)N[C@H](C(=O)N[C@@H](Cc2ccccc2)C[C@H](O)[C@H](Cc2ccccc2)NC(=O)OCc2cncs2)C(C)C)cs1 [RITONAVIR]", "Result": "Compound NOT metabolized"}
{"Compound": "O=P(O)(O)O.c1ccc(CN(CC2=NCCN2)c2ccccc2)cc1 [ANTAZOLINE PHOSPHATE]", "Result": "Compound NOT metabolized"}
{"Compound": "CN1[C@@H]2CC[C@H]1C[C@@H](OC(=O)c1c[nH]c3ccccc13)C2 [TROPISETRON]", "Result": "Compound NOT metabolized"}
{"Compound": "CC(C)(C(=O)O)c1ccc(C(O)CCCN2CCC(C(O)(c3ccccc3)c3ccccc3)CC2)cc1 (centres undefined) [FEXOFENADINE]", "Result": "Compound NOT metabolized"}
{"Compound": "CCN(CC)C(=O)C1(c2ccccc2)CC1CN (centres undefined)", "Result": "Compound NOT metabolized"}
{"Compound": "Fc1ccc([C@@H]2CCNC[C@H]2COc2ccc3c(c2)OCO3)cc1 [PAROXETINE]", "Result": "Compound NOT metabolized"}

Determine from records and report Bacterial Biotransformation for C=CCc1ccccc1OCC(O)CNC(C)C (centres undefined) [ALPRENOLOL]
Compound metabolized

Entry CN(C)C(=O)Oc1cccc([N+](C)(C)C)c1.[Br-] [NEOSTIGMINE BROMIDE] needs its Bacterial Biotransformation filled in; supply it.
Compound NOT metabolized

Write down Bacterial Biotransformation measured for item OCCOCCN1CCN(C2=Nc3ccccc3Sc3ccccc32)CC1 [QUETIAPINE]
Compound NOT metabolized

Tell us which Bacterial Biotransformation value is on record for Cc1ccc(S(=O)(=O)NC(=O)NN2CCCCCC2)cc1 [TOLAZAMIDE]
Compound metabolized

Tell me Bacterial Biotransformation reported for CCCC1O[C@@H]2C[C@H]3[C@@H]4CCC5=CC(=O)C=C[C@]5(C)[C@H]4[C@@H](O)C[C@]3(C)[C@]2(C(=O)CO)O1 (some centres undefined) [BUDESONIDE]
Compound NOT metabolized

Indicate its recorded Bacterial Biotransformation; the compound in question is COc1ccccc1OCC(O)COC(N)=O (centres undefined) [METHOCARBAMOL]
Compound NOT metabolized

Respond only with Bacterial Biotransformation recorded for Cc1ccccc1N1C(=O)c2cc(S(N)(=O)=O)c(Cl)cc2NC1C (centres undefined) [METOLAZONE]
Compound NOT metabolized

Note Bacterial Biotransformation for the compound shown: CN1CCN2c3ccccc3Cc3ccccc3C2C1 (centres undefined) [MIANSERIN]
Compound NOT metabolized

Identify Bacterial Biotransformation associated with the compound CCC(COC(=O)c1cc(OC)c(OC)c(OC)c1)(c1ccccc1)N(C)C.O=C(O)/C=C\C(=O)O (centres undefined)
Compound metabolized

Give the measured Bacterial Biotransformation for OC(Cn1cncn1)(Cn1cncn1)c1ccc(F)cc1F [FLUCONAZOLE]
Compound metabolized

# return recorded Bacterial Biotransformation for input Cc1cc2c(s1)Nc1ccccc1N=C2N1CCN(C)CC1 [OLANZAPINE]
Compound NOT metabolized

Identify the reported Bacterial Biotransformation for the following entry. Nc1c2c(nc3ccccc13)CCCC2 [TACRINE]
Compound NOT metabolized

Please look at this compound and report its Bacterial Biotransformation: C#C[C@]1(OC(C)=O)CC[C@H]2[C@@H]3CCC4=CC(=O)CC[C@@H]4[C@H]3CC[C@@]21C [NORETHINDRONE ACETATE]
Compound NOT metabolized

----------
# Assay Details: The drug is tested on Anaerotruncus colihominis strain: DSM17241 for biotransformation. The drug concentrations were measured before and after a 12-h incubation by liquid-chromatography-coupled mass spectrometry (LC–MS)
# Stated Conditions: 2 µM
Measurement Kind: Bacterial Biotransformation

Consider the worked cases shown below.
{"Molecule": "COc1ccc2c(c1)c(CC(=O)O)c(C)n2C(=O)c1ccc(Cl)cc1 [INDOMETHACIN]", "Bacterial Biotransformation": "Compound NOT metabolized"}
{"Molecule": "CCOC(=O)C1=C(C)NC(C)=C(C(=O)OC)C1c1cccc([N+](=O)[O-])c1 (centres undefined) [NITRENDIPINE]", "Bacterial Biotransformation": "Compound metabolized"}
{"Molecule": "COC1=C(OC)C(=O)C(CCCCCCCCCCO)=C(C)C1=O [IDEBENONE]", "Bacterial Biotransformation": "Compound NOT metabolized"}
{"Molecule": "CN(C)C(=O)Oc1cccc([N+](C)(C)C)c1.[Br-] [NEOSTIGMINE BROMIDE]", "Bacterial Biotransformation": "Compound NOT metabolized"}
{"Molecule": "CC#C[C@]1(O)CC[C@H]2[C@@H]3CCC4=CC(=O)CCC4=C3[C@@H](c3ccc(N(C)C)cc3)C[C@@]21C [MIFEPRISTONE]", "Bacterial Biotransformation": "Compound NOT metabolized"}
{"Molecule": "CC(C)NCC(O)COc1ccc(CC(N)=O)cc1 (centres undefined) [ATENOLOL]", "Bacterial Biotransformation": "Compound NOT metabolized"}
{"Molecule": "COc1ccccc1OCCNCC(O)COc1cccc2[nH]c3ccccc3c12 (centres undefined) [CARVEDILOL]", "Bacterial Biotransformation": "Compound metabolized"}
{"Molecule": "CC(CN1c2ccccc2Sc2ccccc21)N(C)C (centres undefined) [PROMETHAZINE]", "Bacterial Biotransformation": "Compound NOT metabolized"}

Report measured Bacterial Biotransformation; entry is O=C1C(CC[S+]([O-])c2ccccc2)C(=O)N(c2ccccc2)N1c1ccccc1 (centres undefined) [SULFINPYRAZONE]
Compound NOT metabolized

----------
# Assay Details: The drug is tested on Salmonella typhimurium strain: LT2 for biotransformation. The drug concentrations were measured before and after a 12-h incubation by liquid-chromatography-coupled mass spectrometry (LC–MS)
# Stated Conditions: salmonella enterica subsp. enterica, 2 µM
Measurement Kind: Bacterial Biotransformation

Some compounds with known Bacterial Biotransformation results, for comparison:
{"Compound": "COC(=O)C(c1ccccc1)C1CCCCN1 (stereo not given) [METHYLPHENIDATE]", "Bacterial Biotransformation": "Compound NOT metabolized"}
{"Compound": "COC(=O)[C@H](c1ccccc1Cl)N1CCc2sccc2C1.O=S(=O)(O)O [CLOPIDOGREL BISULFATE]", "Bacterial Biotransformation": "Compound NOT metabolized"}
{"Compound": "CN/C(=N/CCSCc1nc[nH]c1C)NC#N", "Bacterial Biotransformation": "Compound NOT metabolized"}
{"Compound": "CC(C)NCC(O)COc1ccc(CC(N)=O)cc1 (stereo not given)", "Bacterial Biotransformation": "Compound NOT metabolized"}
{"Compound": "Cc1nc(-c2ccc(OCC(C)C)c(C#N)c2)sc1C(=O)O", "Bacterial Biotransformation": "Compound NOT metabolized"}
{"Compound": "CN1CCN(C2=Nc3cc(Cl)ccc3Nc3ccccc32)CC1", "Bacterial Biotransformation": "Compound NOT metabolized"}

Entry Nc1nc2ccc(OC(F)(F)F)cc2s1 needs its Bacterial Biotransformation filled in; supply it.
Compound NOT metabolized

Note Bacterial Biotransformation for the compound shown: COC1=CC(=O)C[C@@H](C)[C@]12Oc1c(Cl)c(OC)cc(OC)c1C2=O
Compound NOT metabolized

Supply reported Bacterial Biotransformation belonging to this compound: OCCOCCN1CCN(C2=Nc3ccccc3Sc3ccccc32)CC1
Compound NOT metabolized
